Entry source: ChEMBL document CHEMBL1201862

Readings of GI50 for the listed molecules
- Tested on: U-251
- test.description: NCI tumour cell line growth inhibition, 48 h
Active and inactive are the calls of the source. No stated cut-off is given here; in the data, active = GI50 up to about 1.1 µM and inactive = higher.

Some molecules with recorded GI50:
Cc1c(S(=O)(=O)c2ccccc2)c(N)n(Cc2ccccc2)c1C : > 100 µM (inactive)
C=CC[C@H]1[C@H](O[Si](C)(C)C(C)(C)C)C=CC(=O)[C@@H]1CC(=O)OCC : 14.6 µM (inactive)
COC(=O)C1=C(OC(=O)/C(=C/c2c(F)cccc2F)c2ccccc2)C(C(=O)OC)[C@@]2(O)[C@@H](C(=O)OC)[C@H](C)C[C@@H]1[C@@H]2C(=O)OC (some centres undefined) : > 100 µM (inactive)
C[n+]1c(-c2ccc(/C=N\NC(=O)c3ccc(C(=O)N/N=C/c4ccc(-c5cn6ccsc6[n+]5C)cc4)cc3)cc2)cn2ccsc21 : 25.6 µM (inactive)
COc1ccc([Se]c2ccc(OC)cc2OC)c(OC)c1 : 21.6 µM (inactive)
CC1C(C#N)(C#N)C(C#N)=C(N)C1(Cl)[N+](=O)[O-] (centres undefined) : 17.1 µM (inactive)
O=c1[nH]nc(-c2ccccc2)n1/N=C\c1ccccc1 : > 100 µM (inactive)
COc1ccc(NC(=S)c2ccc(CN3CCCCC3)s2)cc1 : 17.1 µM (inactive)

Now for another entry.
Determine its reported GI50: CC(=O)[C@]1(C)[C@H](C)O[C@](C)(CO)[C@H]1O[Si](C)(C)c1ccccc1
> 100 µM (inactive)
